Ok so here's the combined literature set: pIC50 for Vascular endothelial growth factor receptor 3 (Homo sapiens).
Answers are plain numbers, as −log10 of the molar value.

Batch request: pIC50 per item, same order as input.
1. COc1ccc(Nc2nccc(-c3ccc4c(c3)CCCC(=O)N4)n2)cc1
2. Brc1ccc(-c2cnc(Nc3cccc4ccccc34)o2)cc1

Output:
5.60
6.10

Please state pIC50 for every compound in the list that follows.
1. O=C1CCCc2cc(-c3ccnc(Nc4ccc(Cl)cc4)n3)ccc2N1
2. Cc1ccc(Nc2nccc(N(C)c3ccc4[nH]ccc4c3)n2)cc1S(N)(=O)=O

Output:
4.72
8.70
